System: ABL1(F317L)-phosphorylated
Test: KINOMEscan kinase binding assay
Details: at 1 μM
# reported % Ctrl; entries follow
Write the value in % as a bare number.

Here's what some known entries look like.
- COMPOUND: "C[C@@H]1COCc2nn(C)cc2-c2cc(Cl)c3c(c2)/C(=C/c2[nH]ccc2C(=O)N1)C(=O)N3 [Cpd. 4]"
  MEASUREMENT UNIT: "%"
  % Ctrl: 90
- COMPOUND: "Cc1cc2c([nH]1)/C=C1\\C(=O)Nc3c(Cl)cc(cc31)-c1cn(C)nc1COC[C@@H](C)NC2=O [Cpd. 3]"
  MEASUREMENT UNIT: "%"
  % Ctrl: 93
- COMPOUND: "Cc1cc2c([nH]1)/C=C1\\C(=O)Nc3ccc(cc31)-c1c(nn(C)c1C)COCCN(C)C2=O [Cpd. 2]"
  MEASUREMENT UNIT: "%"
  % Ctrl: 78
- COMPOUND: "Cc1cc2c([nH]1)/C=C1\\C(=O)Nc3c(Cl)cc(cc31)-c1cn(C)nc1COC[C@@H](C)N(C)C2=O [Cpd. 5]"
  MEASUREMENT UNIT: "%"
  % Ctrl: 83

Query :: Recorded % Ctrl for Cc1cc2c([nH]1)/C=C1\C(=O)Nc3ccc(cc31)-c1c(nn(C)c1C)OCCCN(C)C2=O [Cpd. 1] with ABL1(F317L)-phosphorylated, please?
Result :: 86

---

Tested on: EGFR(L861Q)
Test: KINOMEscan kinase binding assay
Settings: at 1 μM
OUTCOME MEASURE: % Ctrl (%)
Report the value in % with no unit label.

- SMILES TEXT: "Cc1cc2c([nH]1)/C=C1\\C(=O)Nc3ccc(cc31)-c1c(nn(C)c1C)COCCN(C)C2=O"
  % Ctrl (%): 62
- SMILES TEXT: "C[C@@H]1COCc2nn(C)cc2-c2cc(Cl)c3c(c2)/C(=C/c2[nH]ccc2C(=O)N1)C(=O)N3"
  % Ctrl (%): 89
- SMILES TEXT: "Cc1cc2c([nH]1)/C=C1\\C(=O)Nc3ccc(cc31)-c1c(nn(C)c1C)OCCCN(C)C2=O"
  % Ctrl (%): 82

Query :: Quick check: % Ctrl on EGFR(L861Q), item `Cc1cc2c([nH]1)/C=C1\C(=O)Nc3c(Cl)cc(cc31)-c1cn(C)nc1COC[C@@H](C)NC2=O` ?
Result :: 98

Query :: What measured % Ctrl is associated with `Cc1cc2c([nH]1)/C=C1\C(=O)Nc3c(Cl)cc(cc31)-c1cn(C)nc1COC[C@@H](C)N(C)C2=O` on EGFR(L861Q)?
Result :: 94

---

Listed here: items and their measured % Ctrl.
Tested on: SRC
Assay: KINOMEscan kinase binding assay
Details: at 1 μM
API: value field is a number in %; no unit string.

- SMILES TEXT: "Cc1cc2c([nH]1)/C=C1\\C(=O)Nc3ccc(cc31)-c1c(nn(C)c1C)COCCN(C)C2=O"
  % Ctrl [%]: 100
- SMILES TEXT: "Cc1cc2c([nH]1)/C=C1\\C(=O)Nc3c(Cl)cc(cc31)-c1cn(C)nc1COC[C@@H](C)NC2=O"
  % Ctrl [%]: 100
- SMILES TEXT: "Cc1cc2c([nH]1)/C=C1\\C(=O)Nc3c(Cl)cc(cc31)-c1cn(C)nc1COC[C@@H](C)N(C)C2=O"
  % Ctrl [%]: 100
- SMILES TEXT: "Cc1cc2c([nH]1)/C=C1\\C(=O)Nc3ccc(cc31)-c1c(nn(C)c1C)OCCCN(C)C2=O"
  % Ctrl [%]: 89

Query :: Looking for the measured % Ctrl of `C[C@@H]1COCc2nn(C)cc2-c2cc(Cl)c3c(c2)/C(=C/c2[nH]ccc2C(=O)N1)C(=O)N3` , can you help?
Result :: 100

Reference for the values: patent US20250074920A1
